Below are AC50 values measured for Sodium-dependent noradrenaline transporter (Homo sapiens).

Reference set (5 entries):
| Molecule | AC50 |
| --- | --- |
| NC1CCN(c2c(F)cc3c(=O)c(C(=O)O)cn(C4CC4)c3c2Cl)C1 (centres undefined) | > 30 µM |
| Cc1cc(C)c(NC(=O)CN(CC(=O)O)CC(=O)O)c(C)c1Br | > 30 µM |
| CC(=O)Oc1ccc2c(c1)CC[C@@H]1[C@@H]2CC[C@]2(C)[C@@H](O)CC[C@@H]12 [ESTRADIOL ACETATE] | > 30 µM |
| OCCN1C[C@H](O)[C@@H](O)[C@H](O)[C@H]1CO | > 30 µM |
| Cc1cccc(Nc2ccccc2C(=O)O)c1C | > 30 µM |

Task item: Fill in the recorded AC50 for this molecule, with Sodium-dependent noradrenaline transporter (Homo sapiens) as test system: CCN(CC)CCOC(=O)C(c1ccccc1)C1CCCCC1 (centres undefined)
Sequence (P23975 whole entry): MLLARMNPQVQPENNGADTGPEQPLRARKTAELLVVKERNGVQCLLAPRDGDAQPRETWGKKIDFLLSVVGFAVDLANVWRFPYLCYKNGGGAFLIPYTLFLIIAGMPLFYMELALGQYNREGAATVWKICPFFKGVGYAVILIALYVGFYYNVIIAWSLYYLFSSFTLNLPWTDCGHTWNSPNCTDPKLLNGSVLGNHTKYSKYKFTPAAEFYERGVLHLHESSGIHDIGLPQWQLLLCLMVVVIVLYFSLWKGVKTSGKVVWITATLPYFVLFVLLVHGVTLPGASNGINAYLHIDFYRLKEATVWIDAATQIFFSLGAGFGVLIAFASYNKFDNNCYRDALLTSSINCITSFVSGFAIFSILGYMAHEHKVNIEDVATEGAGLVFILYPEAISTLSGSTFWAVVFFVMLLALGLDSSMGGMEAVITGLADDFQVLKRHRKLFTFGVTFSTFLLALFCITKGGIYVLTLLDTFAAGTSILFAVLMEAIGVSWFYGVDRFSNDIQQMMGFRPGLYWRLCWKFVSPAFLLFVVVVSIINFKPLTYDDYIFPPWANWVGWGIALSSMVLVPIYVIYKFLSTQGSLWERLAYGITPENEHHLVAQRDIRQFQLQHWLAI
Reply: 13 µM

Task item: Missing value: AC50, Sodium-dependent noradrenaline transporter (Homo sapiens), entry C=CCCCCCCCCC(=O)O . Fill in?
Reply: > 30 µM

Task item: Write down the reported AC50 of O=C(OCC(O)CO)c1ccccc1Nc1ccnc2cc(Cl)ccc12 (centres undefined) , test system: Sodium-dependent noradrenaline transporter (Homo sapiens). Also: assay procedure not described here.
Reply: 17 µM

Task item: GET /values?readout=AC50&system=Sodium-dependent noradrenaline transporter (Homo sapiens)&item= O=[N+]([O-])c1cn2c(n1)OC[C@@H](OCc1ccc(OC(F)(F)F)cc1)C2; also: assay procedure not described here
Reply: > 30 µM

Task item: Param readout = AC50; param system = Sodium-dependent noradrenaline transporter (Homo sapiens); param query = CC(CNC(=O)c1ccccc1)C(=O)OCC(=O)[C@@]12OC(C)(C)O[C@@H]1C[C@H]1[C@@H]3CCC4=CC(=O)C=C[C@]4(C)[C@@]3(F)[C@@H](O)C[C@@]12C (some centres undefined) [TRIAMCINOLONE BENETONIDE] ; response: value; also: assay procedure not described here
Reply: > 30 µM

Task item: Lab note: need AC50 for CCOC(=O)[C@H](CCc1ccccc1)N[C@@H](C)C(=O)N1[C@H](C(=O)O)C[C@H]2CCCC[C@@H]21 on Sodium-dependent noradrenaline transporter (Homo sapiens), anyone have it?
Reply: > 30 µM

Task item: What value of AC50 on Sodium-dependent noradrenaline transporter (Homo sapiens) does OC(CCN1CCCCC1)(c1ccccc1)c1ccccc1 have?
Reply: > 30 µM

Task item: Query the reported AC50 for Sodium-dependent noradrenaline transporter (Homo sapiens); item: CC(C)COC(=O)OCN1C(=O)CN(CCN2CC(=O)N(COC(=O)OCC(C)C)C(=O)C2)CC1=O
Reply: > 30 µM

Task item: For Sodium-dependent noradrenaline transporter (Homo sapiens), provide AC50 of CC1(C)NC(=O)N(c2ccc([N+](=O)[O-])c(C(F)(F)F)c2)C1=O [NILUTAMIDE] please.
Reply: > 30 µM

Task item: What reported AC50 corresponds to CCOc1ccccc1C(N)=O [ETHENZAMIDE] on Sodium-dependent noradrenaline transporter (Homo sapiens)?
Reply: > 30 µM

Task item: Return AC50 measured with Sodium-dependent noradrenaline transporter (Homo sapiens) given this molecule: O=[N+]([O-])O[C@@H]1CO[C@H]2[C@@H]1OC[C@@H]2O [ISOSORBIDE MONONITRATE]
Reply: > 30 µM

Task item: Value wanted: AC50 (Sodium-dependent noradrenaline transporter (Homo sapiens)) of entry CCCCCNC(=N)N/N=C/c1c[nH]c2ccc(OC)cc12
Reply: 0.26 µM

Task item: Write down the reported AC50 of CCC(=O)NCC[C@@H]1CCc2ccc3c(c21)CCO3 , test system: Sodium-dependent noradrenaline transporter (Homo sapiens). Also: assay procedure not described here.
Reply: > 30 µM

Task item: Return AC50 measured with Sodium-dependent noradrenaline transporter (Homo sapiens) given this molecule: OC[C@@H](O)[C@H](O)[C@@H](O)CO
Reply: > 30 µM

Task item: Give AC50 (Sodium-dependent noradrenaline transporter (Homo sapiens)) of the following molecule: CS(=O)(=O)c1ccc(C2=C(c3ccccc3)C(=O)OC2)cc1
Reply: > 30 µM

Task item: Missing value: AC50, Sodium-dependent noradrenaline transporter (Homo sapiens), entry O=c1[nH]c(=O)n([C@H]2C[C@H](O)[C@@H](CO)O2)cc1I . Fill in?
Reply: > 30 µM

Task item: // fetch Sodium-dependent noradrenaline transporter (Homo sapiens) AC50 for CC(C)C[C@H]1C(=O)N2CCC[C@H]2[C@]2(O)O[C@](NC(=O)[C@@H]3C[C@@H]4c5cccc6[nH]cc(c56)C[C@H]4N(C)C3)(C(C)C)C(=O)N12 [DIHYDROERGOCRYPTINE]
Reply: > 30 µM

Task item: Find AC50 (Sodium-dependent noradrenaline transporter (Homo sapiens)) for the entry CN(C)CCn1nnnc1SCC1=C(C(=O)O)N2C(=O)[C@@H](NC(=O)Cc3csc(N)n3)[C@H]2SC1
Reply: > 30 µM

Task item: Item: CC(C)(C)C(=O)C(Oc1ccc(Cl)cc1)n1ccnc1 (centres undefined) Test system: Sodium-dependent noradrenaline transporter (Homo sapiens) Read-out: AC50 Value: ?; also: assay procedure not described here
Reply: 20.8 µM

###

A short record of AC50 observed with Neuronal acetylcholine receptor subunit alpha-4 (Homo sapiens) follows.

| Molecule | AC50 |
| --- | --- |
| CN1[C@@H]2CC[C@H]1C[C@@H](OC(c1ccccc1)c1ccccc1)C2 | > 30 µM |
| CC(CC(c1ccccc1)c1ccccc1)NC(C)(C)C (stereo not given) | > 30 µM |
| COc1ccc(-c2ccc3cc(C(=O)O)ccc3c2)cc1C12CC3CC(CC(C3)C1)C2 | > 30 µM |
| CCCC(C)C1(CC)C(=O)NC(=O)NC1=O (stereo not given) | > 10 µM |
| C[C@H]1COc2c(C3(N)CC3)c(F)cc3c(=O)c(C(=O)O)cn1c23 | > 10 µM |
| O=C(O)/C=C/c1ccc(Cn2ccnc2)cc1 | > 30 µM |
| O=C(O)C1=C(CSc2nnnn2CS(=O)(=O)O)CS[C@@H]2[C@H](NC(=O)[C@H](O)c3ccccc3)C(=O)N12 | > 30 µM |
| CN(C)CCC=C1c2ccccc2C=Cc2ccccc21 | > 10 µM |
| C=CCC1(C(C)CC)C(=O)NC(=O)NC1=O (stereo not given) | > 10 µM |

Now turn to the next molecule.
Task item: Please look up its AC50: C=CCC1(CC(C)C)C(=O)NC(=O)NC1=O
Reply: > 10 µM

###

biological target: 5-hydroxytryptamine receptor 1A (Homo sapiens, UniProt P08908); type: functional, cell-based; also: assay procedure not described here
Sequence (P08908 whole entry): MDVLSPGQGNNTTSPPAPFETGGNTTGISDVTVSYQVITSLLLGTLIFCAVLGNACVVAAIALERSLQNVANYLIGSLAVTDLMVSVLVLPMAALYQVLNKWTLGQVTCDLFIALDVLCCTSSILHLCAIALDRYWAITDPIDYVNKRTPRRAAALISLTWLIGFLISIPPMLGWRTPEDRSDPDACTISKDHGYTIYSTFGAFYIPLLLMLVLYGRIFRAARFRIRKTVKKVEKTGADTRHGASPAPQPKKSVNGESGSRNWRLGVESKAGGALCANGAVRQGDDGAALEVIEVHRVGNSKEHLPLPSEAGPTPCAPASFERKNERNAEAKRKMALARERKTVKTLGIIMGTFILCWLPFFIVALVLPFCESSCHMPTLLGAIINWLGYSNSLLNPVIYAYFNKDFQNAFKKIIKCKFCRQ
Property: AC50; scope: individual compounds

| Compound | Observed measurement |
| --- | --- |
| CCCC(C)C1(CC)C(=O)NC(=O)NC1=O (centres undefined) [PENTOBARBITAL] | > 10 µM |
| CC(C)=CCC/C(C)=C/C=C/C(C)=C/C=C/C(C)=C/C=C/C=C(C)/C=C/C=C(C)/C=C/C=C(\C)CCC=C(C)C [LYCOPENE] | > 30 µM |
| CC(C)(C)C(=O)Oc1ccc(S(=O)(=O)Nc2ccccc2C(=O)NCC(=O)O)cc1 | > 30 µM |

Below: the item to evaluate.
Task item: Report AC50 for Clc1ccccc1C(c1ccccc1)(c1ccccc1)n1ccnc1 [CLOTRIMAZOLE] please.
Reply: > 10 µM

###

target: Neuronal acetylcholine receptor subunit alpha-4 (Homo sapiens, UniProt P43681); also: assay procedure not described here
Sequence (P43681 whole entry): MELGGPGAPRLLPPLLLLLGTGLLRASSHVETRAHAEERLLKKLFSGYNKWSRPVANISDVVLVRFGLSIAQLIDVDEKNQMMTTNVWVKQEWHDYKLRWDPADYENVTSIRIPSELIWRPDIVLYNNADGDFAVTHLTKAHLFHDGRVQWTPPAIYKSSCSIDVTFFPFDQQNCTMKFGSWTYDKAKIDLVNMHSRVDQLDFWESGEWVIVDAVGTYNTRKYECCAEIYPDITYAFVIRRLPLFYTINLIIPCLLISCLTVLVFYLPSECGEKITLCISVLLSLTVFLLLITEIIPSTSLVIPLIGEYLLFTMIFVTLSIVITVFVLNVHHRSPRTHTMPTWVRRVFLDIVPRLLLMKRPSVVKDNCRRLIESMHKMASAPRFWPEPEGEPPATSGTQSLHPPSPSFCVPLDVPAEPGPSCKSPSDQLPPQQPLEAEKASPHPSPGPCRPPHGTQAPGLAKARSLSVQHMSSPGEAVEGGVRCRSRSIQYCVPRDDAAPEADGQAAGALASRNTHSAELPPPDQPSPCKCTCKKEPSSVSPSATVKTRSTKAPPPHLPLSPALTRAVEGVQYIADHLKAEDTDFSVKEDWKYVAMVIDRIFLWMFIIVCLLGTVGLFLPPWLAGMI
# Lookup of reported AC50 keyed by entry

| Compound | Observed measurement |
| --- | --- |
| COc1ccccc1OCCNCC(O)c1ccc(C)c(S(N)(=O)=O)c1 (centres undefined) | > 30 µM |
| N#Cc1ccc([C@H]2CCc3cncn32)c(F)c1 | > 10 µM |
| C=CCc1ccccc1OCC(O)CNC(C)C (centres undefined) | > 30 µM |

Task item: Fill in the recorded AC50 for this compound, with Neuronal acetylcholine receptor subunit alpha-4 (Homo sapiens, UniProt P43681) as test system: CCC1(CC)C(=O)NCC(C)C1=O (centres undefined)
Reply: > 30 µM

Task item: Enter reported AC50 observed with Neuronal acetylcholine receptor subunit alpha-4 (Homo sapiens, UniProt P43681) for COC(=O)C1=C(C)NC(C)=C(C(=O)OC(C)(C)CN(C)CCC(c2ccccc2)c2ccccc2)C1c1cccc([N+](=O)[O-])c1 (centres undefined)
Reply: > 30 µM

Task item: Query for Neuronal acetylcholine receptor subunit alpha-4 (Homo sapiens, UniProt P43681): what AC50 does the record show for Nc1nc(/C(=C/CC(=O)O)C(=O)N[C@@H]2C(=O)N3C(C(=O)O)=CCS[C@H]23)cs1 ?
Reply: > 30 µM

Task item: Enter reported AC50 observed with Neuronal acetylcholine receptor subunit alpha-4 (Homo sapiens, UniProt P43681) for Cc1nc([N+](=O)[O-])cn1-c1ccc([N+](=O)[O-])cc1
Reply: > 30 µM

Task item: Provide the documented AC50 with Neuronal acetylcholine receptor subunit alpha-4 (Homo sapiens, UniProt P43681) as the system for CC(C[N+](C)(C)C)OC(N)=O (centres undefined)
Reply: > 10 µM

Task item: Item: CC[C@H]1OC(=O)[C@H](C)[C@@H](O[C@H]2C[C@@](C)(OC)[C@@H](O)[C@H](C)O2)[C@H](C)[C@@H](O[C@@H]2O[C@H](C)C[C@H](N(C)C)[C@H]2O)[C@](C)(O)C[C@@H](C)CN(C)[C@H](C)[C@@H](O)[C@]1(C)O Test system: Neuronal acetylcholine receptor subunit alpha-4 (Homo sapiens, UniProt P43681) Read-out: AC50 Value: ?; also: assay procedure not described here
Reply: > 10 µM

Task item: API: value(readout=AC50, system=Neuronal acetylcholine receptor subunit alpha-4 (Homo sapiens, UniProt P43681)) for record CO[C@H]1C[C@@H]2CC[C@@H](C)[C@@](O)(O2)C(=O)C(=O)N2CCCC[C@H]2C(=O)O[C@H]([C@H](C)C[C@@H]2CC[C@@H](O)[C@H](OC)C2)CC(=O)[C@H](C)/C=C(\C)[C@@H](O)[C@@H](OC)C(=O)[C@H](C)C[C@H](C)/C=C/C=C/C=C/1C; also: assay procedure not described here
Reply: > 10 µM

Task item: Tell me reported AC50 for CCOC(=O)[N-]c1cn(N2CCOCC2)n[o+]1 , tested with Neuronal acetylcholine receptor subunit alpha-4 (Homo sapiens, UniProt P43681).
Reply: > 30 µM

Task item: Item: C[C@]12CCC(=O)C=C1CC[C@@H]1[C@@H]2[C@@H](O)C[C@@]2(C)[C@H]1CC[C@]2(O)C(=O)CO [HYDROCORTISONE] Test system: Neuronal acetylcholine receptor subunit alpha-4 (Homo sapiens, UniProt P43681) Read-out: AC50 Value: ?; also: assay procedure not described here
Reply: > 10 µM

Task item: Fill in the recorded AC50 for this compound, with Neuronal acetylcholine receptor subunit alpha-4 (Homo sapiens, UniProt P43681) as test system: CCc1c(Cl)c(O)c(Cl)c(O)c1C(=O)O[C@H]1[C@H](O)[C@H](OC)[C@H](OC/C2=C\C=C\C[C@H](O)/C(C)=C/[C@H](CC)[C@@H](O[C@@H]3OC(C)(C)[C@@H](OC(=O)C(C)C)[C@H](O)[C@@H]3O)/C(C)=C/C(C)=C/C[C@@H]([C@@H](C)O)OC2=O)O[C@@H]1C
Reply: > 10 µM

Task item: AC50 of Cc1cccc(C(C)c2cnc[nH]2)c1C (centres undefined) on Neuronal acetylcholine receptor subunit alpha-4 (Homo sapiens, UniProt P43681)?
Reply: > 30 µM
